I'd be grateful if you could share measured melting point for these entries.

Example compounds with recorded melting point:
Cc1ccc2c(c1)N=C(NS(=O)(=O)c1cccc3ccccc13)NC2 [PR 62]: 166 to 175 °C
O=S(=O)(NC1=Nc2ccccc2CCN1)c1cccc2ccccc12 [PR 78]: 178 to 180 °C
CC1NC(NS(=O)(=O)c2cccc3ccccc23)=Nc2ccc(Br)cc21 (stereo not shown) [PR 75]: 119 to 123 °C
O=S(=O)(NC1=Nc2cccc(F)c2CN1)c1cccc2ccccc12 [PR 54]: 191 to 193 °C
O=S(=O)(NC1=Nc2ccccc2CN1)c1cccc(Cl)c1 [PR 19]: 176 to 180 °C

Hello, I would appreciate it if you could give melting point for each entry below.
1. O=S(=O)(NC1=Nc2ccccc2CN1)c1ccc(OC(F)(F)F)cc1 [PR 17]
2. CC1NC(NS(=O)(=O)c2ccc(Cl)c3ccccc23)=Nc2c(Cl)cc(Cl)cc21 (stereo not shown) [PR 74]
3. CC1OC(NS(=O)(=O)c2cccc3ccccc23)=Nc2ccccc21 (stereo not shown) [PR 77]

Result ::
1: 161 to 163 °C; 2: 215 to 219 °C; 3: 229 to 233 °C

Hello, I would appreciate it if you could give melting point for each entry below.
1. O=S(=O)(NC1=NCCc2ccccc2N1)c1ccc2ccccc2c1 [PR 38]
2. O=S(=O)(NC1=Nc2ccc(N3CCOCC3)cc2CN1)c1cccc2ccccc12 [PR 65]

Result ::
175 to 180 °C
278 to 281 °C
